The origin of these recorded values is patent US9045491B2.

Test: Safety evaluation: single dose 100 mg/kg by gavage, one week observation
Assay type: in vivo, ICR mouse
Settings: normal ICR mouse, 100 mg/kg single dose, 4 d after administration
READOUT: body weight (g)
Form entry: value (g) — number only.

Below, 2 compounds whose answers are already recorded.
INSERT INTO assay_data (compound, quantity_unit, recorded_value) VALUES
  ('COC(=O)c1csc2c(=O)n(Cc3ccccc3C#N)c(N3CCC[C@@H](N)C3)nc12', 'g', 32.3),
  ('COC(=O)c1cc2nc(N3CCCC(N)C3)n(Cc3ccccc3C#N)c(=O)c2s1 (stereo not shown)', 'g', 30.0);

Item: N#Cc1ccccc1Cn1c(N2CCC[C@@H](N)C2)nc2c(CO)csc2c1=O | body weight: 31.6

Lab note: N#Cc1ccccc1Cn1c(N2CCC[C@@H](N)C2)nc2cc(C(Br)Br)sc2c1=O gave body weight of 31.5

* * *

Test: Safety evaluation: single dose 100 mg/kg by gavage, one week observation
Type: in vivo, ICR mouse
Conditions: normal ICR mouse, 100 mg/kg single dose, 4 d after administration
READOUT: food consumption (g · day^−1 · cage^−1)
Respond with the bare value in g · day^−1 · cage^−1.

Answered examples (3):
INSERT INTO results (compound, quantity_unit, recorded_value) VALUES
  ('N#Cc1ccccc1Cn1c(N2CCC[C@@H](N)C2)nc2cc(C(Br)Br)sc2c1=O', 'g · day^−1 · cage^−1', 18.3),
  ('COC(=O)c1cc2nc(N3CCCC(N)C3)n(Cc3ccccc3C#N)c(=O)c2s1 (stereo not shown)', 'g · day^−1 · cage^−1', 19.4),
  ('N#Cc1ccccc1Cn1c(N2CCC[C@@H](N)C2)nc2c(CO)csc2c1=O', 'g · day^−1 · cage^−1', 21.5);

The compound listed as COC(=O)c1csc2c(=O)n(Cc3ccccc3C#N)c(N3CCC[C@@H](N)C3)nc12 has a reported food consumption of 22.8

* * *

Assay: Safety evaluation: single dose 100 mg/kg by gavage, one week observation
Type: in vivo, ICR mouse
Details: normal ICR mouse, 100 mg/kg single dose, 6 d after administration
READOUT: body weight (g)
Write the number in g without appending the unit.

Below: 3 molecules and their reported body weight.
INSERT INTO measurements (molecule, recorded_value) VALUES
  ('N#Cc1ccccc1Cn1c(N2CCC[C@@H](N)C2)nc2c(CO)csc2c1=O', 32.0),
  ('COC(=O)c1csc2c(=O)n(Cc3ccccc3C#N)c(N3CCC[C@@H](N)C3)nc12', 32.6),
  ('COC(=O)c1cc2nc(N3CCCC(N)C3)n(Cc3ccccc3C#N)c(=O)c2s1 (stereo not shown)', 30.4);

Let's switch to this molecule now.
Item: N#Cc1ccccc1Cn1c(N2CCC[C@@H](N)C2)nc2cc(C(Br)Br)sc2c1=O | body weight: 31.6

* * *

Biological target: human DPP IV (Homo sapiens)
Construct: extracellular fragment of protease DPP IV (aa29-766); made in house; host or cells: baculovirus expression system Bac-to-Bac
Sequence (P27487 29-766): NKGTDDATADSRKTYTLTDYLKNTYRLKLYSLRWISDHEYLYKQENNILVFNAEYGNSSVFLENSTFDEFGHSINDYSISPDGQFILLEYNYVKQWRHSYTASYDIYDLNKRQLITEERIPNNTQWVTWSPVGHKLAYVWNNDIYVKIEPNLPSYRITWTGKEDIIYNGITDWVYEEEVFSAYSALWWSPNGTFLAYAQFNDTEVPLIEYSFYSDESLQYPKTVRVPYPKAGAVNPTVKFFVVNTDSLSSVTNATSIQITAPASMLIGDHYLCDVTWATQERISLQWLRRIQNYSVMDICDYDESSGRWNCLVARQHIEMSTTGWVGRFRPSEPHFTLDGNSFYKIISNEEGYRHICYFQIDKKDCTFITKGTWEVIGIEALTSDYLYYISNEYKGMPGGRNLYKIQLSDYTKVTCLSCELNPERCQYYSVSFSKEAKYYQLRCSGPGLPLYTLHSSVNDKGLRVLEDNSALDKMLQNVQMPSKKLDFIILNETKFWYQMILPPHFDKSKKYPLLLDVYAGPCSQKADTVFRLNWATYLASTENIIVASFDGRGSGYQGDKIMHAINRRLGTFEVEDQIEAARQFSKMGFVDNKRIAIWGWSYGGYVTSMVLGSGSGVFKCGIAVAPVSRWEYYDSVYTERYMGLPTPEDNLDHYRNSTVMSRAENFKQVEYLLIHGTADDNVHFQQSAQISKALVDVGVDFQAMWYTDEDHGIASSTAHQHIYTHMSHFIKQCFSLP
Assay: DPP IV activity screening (Ala-Pro-AMC fluorescence)
Format: biochemical
READOUT: IC50 (nM)
Write the answer as a number in nM, unit excluded.

INSERT INTO results (molecule, readout, recorded_value) VALUES
  ('CS(=O)(=O)CCNC(=O)c1csc2c(=O)n(Cc3ccccc3C#N)c(N3CCC[C@@H](N)C3)nc12 [Compound 90]', 'IC50', 14.3),
  ('Cc1ccc(CNC(=O)c2csc3c(=O)n(Cc4ccccc4C#N)c(N4CCC[C@@H](N)C4)nc23)cc1 [Compound 64]', 'IC50', 33.2),
  ('CC(=O)OCc1csc2c(=O)n(Cc3ccccc3C#N)c(N3CCC[C@@H](N)C3)nc12 [Compound 56]', 'IC50', 11.3);

Param item: N#Cc1ccccc1Cn1c(N2CCC[C@@H](N)C2)nc2c(C(=O)NC3CCCCC3)csc2c1=O [Compound 80] ; param system: human DPP IV (Homo sapiens); output IC50: 26

Test item N#Cc1ccccc1Cn1c(N2CCC[C@@H](N)C2)nc2cc(C(=O)NC3CCCCC3)sc2c1=O [Compound 119] ; human DPP IV (Homo sapiens); reported IC50 was 20.6

* * *

# Kidney index annotations
Assay: Safety evaluation: single dose 100 mg/kg by gavage, one week observation
Type: in vivo, ICR mouse
Settings: normal ICR mouse, 100 mg/kg single dose, 7th day

INSERT INTO results (molecule, recorded_value) VALUES
  ('N#Cc1ccccc1Cn1c(N2CCC[C@@H](N)C2)nc2c(CO)csc2c1=O [DC291004]', '1.5 ± 0.1%'),
  ('COC(=O)c1cc2nc(N3CCCC(N)C3)n(Cc3ccccc3C#N)c(=O)c2s1 (stereo not shown) [DC291407]', '1.5 ± 0.2%'),
  ('COC(=O)c1csc2c(=O)n(Cc3ccccc3C#N)c(N3CCC[C@@H](N)C3)nc12 [DC291009]', '1.4 ± 0.1%');

Read the next record carefully.
Kidney index recorded for this molecule, N#Cc1ccccc1Cn1c(N2CCC[C@@H](N)C2)nc2cc(C(Br)Br)sc2c1=O [DC291411] , is 1.4 ± 0.1%

* * *

Assay: Safety evaluation: single dose 100 mg/kg by gavage, one week observation
Assay type: in vivo, ICR mouse
Details: normal ICR mouse, 100 mg/kg single dose, 2 d after administration
// values below are reported body weight
Kindly format the answer as number then unit.

Consider the worked cases shown below.
INSERT INTO assay_data (compound, readout, recorded_value) VALUES
  ('N#Cc1ccccc1Cn1c(N2CCC[C@@H](N)C2)nc2c(CO)csc2c1=O', 'body weight', '30.8 ± 0.9 g'),
  ('COC(=O)c1cc2nc(N3CCCC(N)C3)n(Cc3ccccc3C#N)c(=O)c2s1 (stereo not shown)', 'body weight', '30.0 ± 1.7 g');

Kindly note the recorded body weight for N#Cc1ccccc1Cn1c(N2CCC[C@@H](N)C2)nc2cc(C(Br)Br)sc2c1=O , which is 31.2 ± 1.6 g

Lookup result for COC(=O)c1csc2c(=O)n(Cc3ccccc3C#N)c(N3CCC[C@@H](N)C3)nc12 ; measured body weight: 31.5 ± 2.3 g

* * *

Record set of IC50 for target or system Human DPP 9 (Homo sapiens).
The response must be a number in µM with no trailing unit.

Look over these answered cases.
INSERT INTO assay_data (structure_smiles, readout, recorded_value) VALUES
  ('N#Cc1ccccc1Cn1c(N2CCC[C@@H](N)C2)nc2cc(C(=O)NCc3cccc(C(F)(F)F)c3)sc2c1=O', 'IC50', 49.7),
  ('N#Cc1ccccc1Cn1c(N2CCC[C@@H](N)C2)nc2c(C(=O)NC3CC3)csc2c1=O', 'IC50', 137),
  ('COC(=O)[C@H](Cc1ccc(O)cc1)NC(=O)c1csc2c(=O)n(Cc3ccccc3C#N)c(N3CCC[C@@H](N)C3)nc12', 'IC50', 54.8),
  ('CNC(=O)c1csc2c(=O)n(Cc3ccccc3C#N)c(N3CCC[C@@H](N)C3)nc12', 'IC50', 254),
  ('CCNC(=O)c1cc2nc(N3CCC[C@@H](N)C3)n(Cc3ccccc3C#N)c(=O)c2s1', 'IC50', 303),
  ('CN(C)C(=O)c1cc2nc(N3CCC[C@@H](N)C3)n(Cc3ccccc3C#N)c(=O)c2s1', 'IC50', 257),
  ('CN(C)C(=O)c1csc2c(=O)n(Cc3ccccc3C#N)c(N3CCC[C@@H](N)C3)nc12', 'IC50', 189),
  ('COC(=O)[C@H](Cc1ccccc1)NC(=O)c1cc2nc(N3CCC[C@@H](N)C3)n(Cc3ccccc3C#N)c(=O)c2s1', 'IC50', 32.6);

Summary line: COC(=O)CNC(=O)c1cc2nc(N3CCC[C@@H](N)C3)n(Cc3ccccc3C#N)c(=O)c2s1 , Human DPP 9 (Homo sapiens), reported IC50 = 179

Item CC(C)NC(=O)c1csc2c(=O)n(Cc3ccccc3C#N)c(N3CCC[C@@H](N)C3)nc12 was tested on Human DPP 9 (Homo sapiens); the reported IC50 is 149

The observed IC50 for CNC(=O)c1cc2nc(N3CCC[C@@H](N)C3)n(Cc3ccccc3C#N)c(=O)c2s1 when tested with Human DPP 9 (Homo sapiens) stands at 254

Given the molecule N#Cc1ccccc1Cn1c(N2CCC[C@@H](N)C2)nc2cc(CO)sc2c1=O and test system Human DPP 9 (Homo sapiens), the measured IC50 is 35.2

The measured IC50 that N#Cc1ccccc1Cn1c(N2CCC[C@@H](N)C2)nc2c(C(=O)NCc3ccc(C(F)(F)F)cc3)csc2c1=O showed for Human DPP 9 (Homo sapiens) is 100

The reported IC50 value, Human DPP 9 (Homo sapiens), for N#Cc1ccccc1Cn1c(N2CCC[C@@H](N)C2)nc2cc(C(=O)NCc3ccccc3Cl)sc2c1=O reads 51.2

Short answer on Human DPP 9 (Homo sapiens) for COC(=O)[C@@H](NC(=O)c1cc2nc(N3CCC[C@@H](N)C3)n(Cc3ccccc3C#N)c(=O)c2s1)C(C)C , IC50: 117
